pKi overview
Molecular target: PKCθ (Homo sapiens, UniProt Q04759)
Sequence (Q04759 whole entry): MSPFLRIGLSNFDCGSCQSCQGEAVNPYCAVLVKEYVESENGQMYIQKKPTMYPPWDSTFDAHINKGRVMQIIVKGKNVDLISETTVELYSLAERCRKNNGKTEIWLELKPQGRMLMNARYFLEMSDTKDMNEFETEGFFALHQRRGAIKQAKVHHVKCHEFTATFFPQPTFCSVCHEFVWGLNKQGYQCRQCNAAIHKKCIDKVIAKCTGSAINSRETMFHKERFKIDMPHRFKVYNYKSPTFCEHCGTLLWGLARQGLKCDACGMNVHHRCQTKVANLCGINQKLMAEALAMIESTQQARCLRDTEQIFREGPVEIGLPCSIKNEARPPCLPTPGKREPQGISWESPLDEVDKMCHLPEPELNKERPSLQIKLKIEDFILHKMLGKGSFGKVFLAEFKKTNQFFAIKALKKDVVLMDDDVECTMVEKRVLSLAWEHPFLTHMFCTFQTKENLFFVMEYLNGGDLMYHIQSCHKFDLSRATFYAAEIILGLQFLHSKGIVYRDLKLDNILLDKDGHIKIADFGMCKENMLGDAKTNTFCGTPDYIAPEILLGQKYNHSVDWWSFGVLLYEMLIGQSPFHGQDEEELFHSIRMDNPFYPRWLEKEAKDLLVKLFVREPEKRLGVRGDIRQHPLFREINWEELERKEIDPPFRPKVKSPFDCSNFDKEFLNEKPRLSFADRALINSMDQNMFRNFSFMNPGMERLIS
pKi: −log10 of the molar value.

The examples below pair each entry with its known result.
Req: # query: pKi of entry Fc1cccc(CNc2ncc3nc(-c4c(Cl)cccc4Cl)n(CC4CCNC4)c3n2)c1 (centres unmarked) [Compound 147]
Resp: > 6.00

Req: Do the same for Fc1ccccc1CNc1ncc2c(n1)C(C[C@H]1CCCNC1)C(c1c(Cl)cccc1Cl)=N2 (some centres unmarked) [Compound 129] please
Resp: > 6.00

Req: Fc1ccc(CNc2ncc3nc(-c4c(Cl)cccc4Cl)n(C[C@H]4CCNC4)c3n2)cc1Cl [Compound 120] ?
Resp: > 6.00

Req: Same question for Fc1ccccc1CNc1ncc2nc(-c3c(Cl)cccc3Cl)n(CC3CCCNC3)c2n1 (centres unmarked) [Compound 117] please.
Resp: > 6.00

Req: And what about the compound Fc1ccc(Cl)cc1CNc1ncc2c(n1)C(C[C@H]1CCNC1)C(c1c(Cl)cccc1Cl)=N2 (some centres unmarked) [Compound 131] ?
Resp: > 6.00

Req: Okay, and Clc1cccc(CNc2ncc3nc(-c4c(Cl)cccc4Cl)n(CC4CCNC4)c3n2)c1 (centres unmarked) [Compound 157] ?
Resp: > 6.00

Req: Next: NCCCCCCn1c(-c2ccccc2Cl)nc2cnc(NCc3ccccc3F)nc21 [Compound 207]
Resp: > 5.00

Consider now this further compound.
Req: Requested read-out: pKi. Entry: Fc1ccc(CNc2ncc3nc(-c4c(Cl)cccc4Cl)n(CCC4CCNCC4)c3n2)cc1 [Compound 163]
Resp: > 6.00

* * *

Target: PKC delta (Homo sapiens)
Sequence (Q05655 whole entry): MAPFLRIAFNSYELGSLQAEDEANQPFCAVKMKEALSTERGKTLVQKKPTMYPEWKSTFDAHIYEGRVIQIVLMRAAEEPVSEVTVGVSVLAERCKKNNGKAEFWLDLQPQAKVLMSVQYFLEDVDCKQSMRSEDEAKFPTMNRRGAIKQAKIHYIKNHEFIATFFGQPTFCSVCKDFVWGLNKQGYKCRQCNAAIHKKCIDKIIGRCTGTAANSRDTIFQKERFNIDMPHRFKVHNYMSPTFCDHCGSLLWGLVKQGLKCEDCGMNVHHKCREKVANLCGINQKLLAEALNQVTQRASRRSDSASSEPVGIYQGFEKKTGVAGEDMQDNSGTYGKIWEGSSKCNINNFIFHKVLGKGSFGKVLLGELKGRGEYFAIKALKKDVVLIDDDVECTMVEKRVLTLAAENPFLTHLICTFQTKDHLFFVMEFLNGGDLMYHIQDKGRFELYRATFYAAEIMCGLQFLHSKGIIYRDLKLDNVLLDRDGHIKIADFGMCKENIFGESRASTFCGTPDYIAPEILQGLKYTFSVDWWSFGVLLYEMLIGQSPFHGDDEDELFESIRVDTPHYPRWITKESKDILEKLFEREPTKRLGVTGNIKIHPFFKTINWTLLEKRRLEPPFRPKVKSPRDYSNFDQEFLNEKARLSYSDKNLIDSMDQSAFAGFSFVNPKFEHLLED
Assay: Ki Pan Vera (PV) potency for PKC delta
Conditions: Ki Pan Vera (PV) of PKC delta
Method: [The source words this procedure for another target and reports this target under the same test.] For Ki Pan Vera (PV) of PKCθ, entries identified with “A” had values below 100 nM; entries identified with “B” had values below 1 μM; and entries identified with “C” had values below 10 μM.
pKi: −log10 of the molar value.
Each record here notes measured pKi.

Some compounds with known pKi results, for comparison:
Req: Recorded pKi for Fc1ccc(CNc2ncc3nc(-c4c(Cl)cccc4Cl)n(C[C@@H]4CCCNC4)c3n2)cc1F [Compound 101] , please?
Resp: < 6.60

Req: Ok, now C[C@H](Nc1ncc2nc(-c3c(Cl)cccc3Cl)n(CC3CCNC3)c2n1)c1ccccc1F (some centres unmarked) [Compound 166]
Resp: < 6.00

Next:
Req: Reported pKi for Fc1ccc(CNc2ncc3nc(-c4c(Cl)cccc4Cl)n(CCC4CCNCC4)c3n2)c(F)c1 [Compound 148] : what is it?
Resp: < 6.00

* * *

Molecular target: PKCθ (Homo sapiens, UniProt Q04759)
Construct: purchased Pan Vera
Test: Ki Pan Vera (PV) potency for PKCθ
Format: biochemical
Conditions: Ki Pan Vera (PV) of PKCθ
Reported Ki by item:

Req: I have this compound here, Fc1cccc(Cl)c1-c1nc2cnc(NCc3cccc(Cl)c3)nc2n1C[C@H]1CCNC1 , and I need its recorded Ki.
Resp: < 1000 nM

Req: Do the same for Fc1cccc(CNc2ncc3nc(-c4c(Cl)cccc4Cl)n(C[C@H]4CCNC4)c3n2)c1 please
Resp: < 1000 nM

Req: Also C[C@H](Nc1ncc2nc(-c3c(F)cccc3Cl)n(C[C@H]3CCNC3)c2n1)c1ccccc1F ?
Resp: < 1000 nM

For the next question, use this compound.
Req: Quick check: Ki of Clc1ccc(CNc2ncc3nc(-c4c(Cl)cccc4Cl)n(C[C@@H]4CCCNC4)c3n2)cc1Cl ?
Resp: < 1000 nM

* * *

Entries with reported Ki on PKCθ (Homo sapiens, UniProt Q04759)

Req: Reported Ki, compound Fc1ccc(F)c(CNc2ncc3nc(-c4ccccc4Cl)n(C[C@@H]4CCCNC4)c3n2)c1 [Compound 167] : ____
Resp: < 1000 nM

Req: Please give the result for Clc1ccc(CNc2ncc3nc(-c4c(Cl)cccc4Cl)n(CCC4CCNCC4)c3n2)cc1 [Compound 173] too.
Resp: < 10000 nM

Req: Try this compound next: Fc1ccc(CNc2ncc3nc(-c4c(Cl)cccc4Cl)n(CCC4CCNCC4)c3n2)cc1F [Compound 118]
Resp: < 1000 nM

Req: Further, for C[C@H](Nc1ncc2nc(-c3c(Cl)cccc3Cl)n(CC3CCNC3)c2n1)c1ccccc1F (stereo partly drawn) [Compound 166] ?
Resp: < 1000 nM

Req: Please do the same for Clc1cccc(Cl)c1-c1nc2cnc(NCc3ccccc3)nc2n1C[C@H]1CCNC1 [Compound 133] as well.
Resp: < 1000 nM

Now turn to the next compound.
Req: What Ki value was documented for this compound, Fc1cccc(CNc2ncc3nc(-c4c(F)cccc4Cl)n(C[C@@H]4CCCNC4)c3n2)c1 [Compound 123] ?
Resp: < 1000 nM

* * *

// endpoint Ki / system PKCθ (Homo sapiens, UniProt Q04759)

Solved entries (count: 5):
Req: What value of measured Ki is listed for Fc1ccc(CNc2ncc3nc(-c4c(Cl)cccc4Cl)n(C[C@@H]4CCCNC4)c3n2)cc1Cl ?
Resp: < 0.1 µM

Req: And Fc1ccc(CNc2ncc3nc(-c4ccccc4Cl)n(C[C@@H]4CCCNC4)c3n2)cc1 ?
Resp: < 1 µM

Req: Thanks! And Fc1cccc(Cl)c1-c1nc2cnc(NCc3cc(Cl)cc(Cl)c3)nc2n1C[C@@H]1CCCNC1 ?
Resp: < 10 µM

Req: Entry Clc1cccc(Cl)c1-c1nc2cnc(NCc3ccccc3)nc2n1CCC1CCNCC1 please
Resp: < 1 µM

Req: Try this compound next: Clc1cc(Cl)cc(CNc2ncc3nc(-c4c(Cl)cccc4Cl)n(C[C@@H]4CCCNC4)c3n2)c1
Resp: < 10 µM

Others:
Req: Param item = NCCN1CCC(n2c(-c3c(Cl)cccc3Cl)nc3cnc(NCc4ccccc4F)nc32)CC1 ; retrieve measured Ki.
Resp: < 1 µM

* * *

Molecular target: PKC alpha (Homo sapiens)
Recorded metric: Ki

// below: answered compounds
Req: Test system PKC alpha (Homo sapiens); read-out Ki; what value for Fc1ccc(F)c(CNc2ncc3nc(-c4c(F)cccc4Cl)n(C[C@@H]4CCCNC4)c3n2)c1 [Compound 124] ?
Resp: > 1000 nM

Req: Also Fc1cccc(CNc2ncc3nc(-c4c(F)cccc4Cl)n(C[C@H]4CCNC4)c3n2)c1 [Compound 205] ?
Resp: > 1000 nM

Req: Likewise for Clc1cccc(CNc2ncc3nc(-c4c(Cl)cccc4Cl)n(CC4CCNC4)c3n2)c1 (stereo not shown) [Compound 157] ?
Resp: > 1000 nM

Next:
Req: Form field - read-out: Ki; system: PKC alpha (Homo sapiens); submitted item: Clc1cccc(Cl)c1-c1nc2cnc(NCc3cccs3)nc2n1CCC1CCNCC1 [Compound 203]
Resp: > 10000 nM

* * *

Target: SGK kinase (Homo sapiens, UniProt O00141)
Sequence (O00141 whole entry): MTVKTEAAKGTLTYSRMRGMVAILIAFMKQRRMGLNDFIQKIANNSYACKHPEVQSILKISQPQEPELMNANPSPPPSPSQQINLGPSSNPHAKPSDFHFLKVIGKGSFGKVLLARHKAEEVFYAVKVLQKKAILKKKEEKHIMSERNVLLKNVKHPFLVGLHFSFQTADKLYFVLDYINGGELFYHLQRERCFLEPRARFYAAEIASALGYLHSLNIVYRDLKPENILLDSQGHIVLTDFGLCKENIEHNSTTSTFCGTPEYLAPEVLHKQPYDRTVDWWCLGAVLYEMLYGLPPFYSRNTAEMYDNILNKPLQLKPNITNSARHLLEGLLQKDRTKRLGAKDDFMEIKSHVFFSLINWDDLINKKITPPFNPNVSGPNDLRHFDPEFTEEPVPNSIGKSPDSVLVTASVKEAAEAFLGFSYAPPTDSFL
Assay: IC50 for SGK kinase (selectivity)
Type: biochemical
Recorded metric: IC50-SGK1

Req: Give its IC50-SGK1 value. Item: Fc1ccccc1CNc1ncc2c(n1)C(C[C@H]1CCCNC1)C(c1c(Cl)cccc1Cl)=N2 (some centres unmarked)
Resp: Inactive

Req: Query Fc1ccc(F)c(CNc2ncc3nc(-c4c(F)cccc4Cl)n(C[C@H]4CCNC4)c3n2)c1 next
Resp: Inactive

Req: Next: Clc1cccc(Cl)c1C1=Nc2cnc(NCc3ccsc3)nc2C1C[C@@H]1CCCNC1 (some centres unmarked)
Resp: Inactive

Req: Moving on to the next molecule: Fc1ccc(CNc2ncc3nc(-c4c(Cl)cccc4Cl)n(C[C@@H]4CCCNC4)c3n2)cc1Cl
Resp: Inactive

Req: Next molecule: Clc1cc(Cl)cc(CNc2ncc3nc(-c4c(Cl)cccc4Cl)n(C[C@@H]4CCCNC4)c3n2)c1
Resp: Inactive

Continuing:
Req: Value lookup for IC50-SGK1; key = Clc1cccc(Cl)c1C1=Nc2cnc(NCc3nccs3)nc2C1C[C@@H]1CCCNC1 (some centres unmarked)
Resp: Inactive

Req: Field entry: Fc1ccc(Cl)cc1CNc1ncc2c(n1)C(C[C@H]1CCNC1)C(c1c(Cl)cccc1Cl)=N2 (some centres unmarked)
Resp: Inactive

Req: Next molecule: NCCCCCCn1c(-c2ccccc2Cl)nc2cnc(NCc3ccccc3F)nc21
Resp: Inactive

Req: Fc1ccc(CNc2ncc3c(n2)C(CC2CNCCO2)C(c2c(F)cccc2Cl)=N3)cc1F (centres unmarked) ?
Resp: Inactive

Req: Now try Fc1ccccc1CNc1ncc2nc(-c3c(F)cccc3Cl)n(CC3CCCNC3)c2n1 (centres unmarked) .
Resp: Inactive

Req: Consider next the molecule Fc1ccc(CNc2ncc3nc(-c4c(Cl)cccc4Cl)n(C[C@@H]4CCCNC4)c3n2)c(F)c1 in the same way.
Resp: Inactive

* * *

Target: PKC alpha (Homo sapiens, UniProt P17252)
pKi: −log10 of the molar value.
Measured pKi, listed per entry for reference.

Req: Query: pKi; subject: Fc1ccc(CNc2ncc3nc(-c4ccccc4Cl)n(C[C@@H]4CCCNC4)c3n2)c(F)c1
Resp: < 5.00

Req: Field entry: Fc1ccccc1CNc1ncc2nc(-c3c(Cl)cccc3Cl)n(C[C@H]3CCNC3)c2n1
Resp: < 6.00

***
Req: Query: pKi; subject: Clc1ccc(CNc2ncc3nc(-c4ccccc4Cl)n(C[C@@H]4CCCNC4)c3n2)cc1Cl
Resp: < 5.00

Req: Another molecule: Fc1cccc(Cl)c1-c1nc2cnc(NCc3ccccc3)nc2n1C[C@@H]1CCCNC1
Resp: < 6.00
